Test system: SK-MEL-2
Experimental protocol: Antiproliferative activity against human SKMEL2 cells after 48 hrs
Type: functional
Experimental setup: SK-MEL-2, 48 h
Observed property: LC50 (µM)
Give your result in µM as a bare value.

Sample CCCCCCCCCCCCCCN[C@H](C)[C@@H](O)c1ccccc1.Cl — what was its LC50?
8.13

Sample C[C@H](NC(=O)CCCCCCCCCCCCCCC[n+]1ccccc1)[C@H](O)c1ccccc1.[Br-] — what was its LC50?
60.3

---

Experimental protocol: Antiproliferative activity against human NCI-ADR-RES cells after 48 hrs
Format: functional
Experimental setup: read-out: Log TGI (converted)
Is TGI at least 4 µM? Then t. If not, f.

# bool: TGI of C[C@@H](NC(=O)CCCCCCCCCCCCCCC[n+]1ccccc1)[C@@H](O)c1ccccc1.[Br-] >= 4 µM
t

# bool: TGI of CCCCCCCCCCCCCCN[C@H](CO)[C@H](O)c1ccccc1 >= 4 µM
f

# bool: TGI of CCCCCCCCCCCCCCN[C@@H](C)[C@H](O)c1ccccc1 >= 4 µM
f

# bool: TGI of CCCCCCCCCCCCCCN[C@H](C)[C@@H](O)c1ccccc1.Cl >= 4 µM
f

# bool: TGI of CCCCCCCCCCCCCCN[C@H](CO)[C@H](O)c1ccc([N+](=O)[O-])cc1.Cl >= 4 µM
t

# bool: TGI of C[C@H](NC(=O)CCCCCCCCCCCCCCC[n+]1ccccc1)[C@H](O)c1ccccc1.[Br-] >= 4 µM
t

# bool: TGI of CCCCCCCCCCCCCCN[C@@H](CO)Cc1ccccc1 >= 4 µM
f
